assay: Systemic serum exposure after intramuscular injection; format: in vivo, Balb/C mice; conditions: Balb/C, mouse, im, +Al—H (adsorbed), 100 μg i.m., 24 hours
OBSERVABLE: AUC (µM·h)

[
  {
    "CHEMICAL SMILES": "CCOCc1nc2c(N)nc3ccccc3c2n1CCOCCOCCOCCP(=O)(O)O",
    "OBSERVABLE": "AUC",
    "REPORTED VALUE": 2.76
  },
  {
    "CHEMICAL SMILES": "COCCOc1nc(N)c2nc(O)n(Cc3ccc(CP(=O)(O)O)cc3)c2n1",
    "OBSERVABLE": "AUC",
    "REPORTED VALUE": 13.4
  },
  {
    "CHEMICAL SMILES": "COCCOc1cc2c(nc(O)n2Cc2ccc(CP(=O)(O)O)cc2)c(N)n1",
    "OBSERVABLE": "AUC",
    "REPORTED VALUE": 8.11
  },
  {
    "CHEMICAL SMILES": "CCCCCNc1nc(N)nc(C)c1Cc1ccc(OCCOCCC(F)(F)P(=O)(O)O)cc1OC",
    "OBSERVABLE": "AUC",
    "REPORTED VALUE": 4.22
  }
]
